assay: Half life in Sprague-Dawley rat at 1 mg/kg, iv measured upto 24 hrs by LC-MS/MS analysis; type: ADME, organism-based; details: in vivo
recorded-endpoint: half-life (h)
Respond with the bare value in h.

Lab note: measured half-life of C[C@@H](NCCCc1cccc(C(F)(F)F)c1)c1cccc2ccccc12 was 6

Lab note: measured half-life of Cc1ccc(N2CC(CN[C@H](C)c3cccc4ccccc34)Oc3ccccc32)cc1C(=O)O.Cl (stereo partly drawn) was 3

Lab note: measured half-life of Cc1ccc([C@@H]2C[C@H](CN[C@H](C)c3cccc4ccccc34)Oc3ccccc32)cc1C(=O)O.Cl was 4

* * *

target: hERG (Homo sapiens); assay: Inhibition of hERG at 10 uM relative to control; type: toxicity
Sequence (Q12809 whole entry): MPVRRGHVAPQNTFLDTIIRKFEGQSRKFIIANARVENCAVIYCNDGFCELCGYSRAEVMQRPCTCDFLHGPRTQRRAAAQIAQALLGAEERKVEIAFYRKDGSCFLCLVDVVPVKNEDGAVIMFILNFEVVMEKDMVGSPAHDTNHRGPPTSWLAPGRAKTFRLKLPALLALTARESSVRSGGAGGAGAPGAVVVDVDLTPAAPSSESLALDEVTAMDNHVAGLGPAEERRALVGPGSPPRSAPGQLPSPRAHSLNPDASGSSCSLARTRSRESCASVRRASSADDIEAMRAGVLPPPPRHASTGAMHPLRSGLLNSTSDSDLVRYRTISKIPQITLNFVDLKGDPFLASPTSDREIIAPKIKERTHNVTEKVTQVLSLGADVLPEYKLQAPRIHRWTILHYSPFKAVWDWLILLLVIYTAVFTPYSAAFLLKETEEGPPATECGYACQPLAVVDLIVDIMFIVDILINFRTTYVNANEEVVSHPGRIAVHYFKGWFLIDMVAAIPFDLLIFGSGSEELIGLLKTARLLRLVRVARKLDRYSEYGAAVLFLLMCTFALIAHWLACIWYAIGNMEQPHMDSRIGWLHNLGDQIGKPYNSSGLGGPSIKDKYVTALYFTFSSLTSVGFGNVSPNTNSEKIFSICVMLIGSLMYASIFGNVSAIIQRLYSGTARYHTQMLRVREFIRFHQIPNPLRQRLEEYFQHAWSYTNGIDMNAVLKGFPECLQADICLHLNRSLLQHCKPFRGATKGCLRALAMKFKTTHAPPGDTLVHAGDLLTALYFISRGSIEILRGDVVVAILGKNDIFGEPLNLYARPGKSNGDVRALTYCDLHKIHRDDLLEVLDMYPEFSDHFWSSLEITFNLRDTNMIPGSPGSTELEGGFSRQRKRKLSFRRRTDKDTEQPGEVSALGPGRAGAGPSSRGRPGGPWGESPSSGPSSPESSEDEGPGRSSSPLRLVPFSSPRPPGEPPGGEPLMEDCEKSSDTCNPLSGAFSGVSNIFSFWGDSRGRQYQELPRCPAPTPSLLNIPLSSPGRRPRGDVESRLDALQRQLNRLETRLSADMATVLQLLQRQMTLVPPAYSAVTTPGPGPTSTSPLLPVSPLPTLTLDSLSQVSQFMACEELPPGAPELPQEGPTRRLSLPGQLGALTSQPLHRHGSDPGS
Form field: inhibition at 10 µM (one value per entry).
Respond with the bare value in %.

Below: 7 compounds and their reported inhibition at 10 µM.
>  <compound>
Cc1ccc(N2CC(CN[C@H](C)c3cccc4ccccc34)Oc3ccccc32)cc1C(=O)O.Cl (stereo partly drawn)

>  <inhibition at 10 µM (%)>
14

$$$$
>  <compound>
C[C@@H](NCC1CN(c2ccc(F)c(C(=O)O)c2)c2ccccc2O1)c1cccc2ccccc12 (mixture of isomers; form 1)

>  <inhibition at 10 µM (%)>
21

$$$$
>  <compound>
C[C@@H](NCC1CN(C(=O)c2ccccc2)c2ccccc2O1)c1cccc2ccccc12 (mixture of isomers; form 1)

>  <inhibition at 10 µM (%)>
52

$$$$
>  <compound>
C[C@@H](NCC1CNc2ccccc2O1)c1cccc2ccccc12 (stereo partly drawn)

>  <inhibition at 10 µM (%)>
97

$$$$
>  <compound>
C[C@@H](NCCCc1cccc(C(F)(F)F)c1)c1cccc2ccccc12

>  <inhibition at 10 µM (%)>
97

$$$$
>  <compound>
Cc1ccc(C(=O)O)cc1[C@@H]1C[C@H](CN[C@H](C)c2cccc3ccccc23)Oc2ccccc21

>  <inhibition at 10 µM (%)>
2

$$$$
>  <compound>
Cc1ccc([C@H]2C[C@@H](CN[C@H](C)c3cccc4ccccc34)Oc3ccccc32)cc1C(=O)O

>  <inhibition at 10 µM (%)>
1

$$$$

Lab note: measured inhibition at 10 µM of C[C@@H](NCC1CN(c2cccc(C(=O)O)c2)c2ccccc2O1)c1cccc2ccccc12 (mixture of isomers; form 1) was -8

* * *

experiment: Tmax in Sprague-Dawley rat at 10 mg/kg, po administered as solution measured upto 24 hrs by LC-MS/MS analysis; assay type: ADME, organism-based; settings: in vivo
recorded-endpoint: Tmax (min)
Respond with the bare value in min.

Lab note: measured Tmax of Cc1ccc([C@@H]2C[C@H](CN[C@H](C)c3cccc4ccccc34)Oc3ccccc32)cc1C(=O)O.Cl was 36

* * *

assay: Ratio of drug concentration in blood to plasma in rat; assay type: ADME, cell-free
recorded-endpoint: blood plasma ratio

Lab note: measured blood plasma ratio of Cc1ccc([C@@H]2C[C@H](CN[C@H](C)c3cccc4ccccc34)Oc3ccccc32)cc1C(=O)O.Cl was 0.64

* * *

test: Drug excretion in rat assessed as drug recovery in urine at 10 mg/kg, po; format: ADME, organism-based; conditions: read-out: Drug recovery
recorded-endpoint: dose excreted

Lab note: measured dose excreted of Cc1ccc([C@@H]2C[C@H](CN[C@H](C)c3cccc4ccccc34)Oc3ccccc32)cc1C(=O)O.Cl was < 1%
